Measured RI resistance index HT29/MIT of individual entries
# System: HT29/MIT
# MEASUREMENT_DESCRIPTION: Cytostatic activity in vitro, mitoxantrone-induced resistant subline HT29/MIT
# Type: cell-based, human
# DETAILS: IC50(resistant cells)/IC50(sensitive cells), HT29/MIT vs HT29
OUTCOME_MEASURE: RI resistance index HT29/MIT

* CNCCNc1ccc2c(=O)n(CCN(C)C)nc3c2c1C(=O)c1ccccc1-3 [BS-154] | 2.1
* COc1cccc2c1C(=O)c1c(O)c3c(c(O)c1C2=O)C[C@@](O)(C(=O)CO)C[C@@H]3O[C@H]1C[C@H](N)[C@H](O)[C@H](C)O1 [Doxorubicin, reference compound] | 1.5
* O=C1c2c(O)ccc(O)c2C(=O)c2c(NCCNCCO)ccc(NCCNCCO)c21 [Mitoxantrone, reference compound] | 74.9
* CN(C)CCn1nc2c3c(c(NCCN)ccc3c1=O)C(=O)c1ccccc1-2 [BS-121] | 4.1

Measured values drawn from patent US9096536B2 for this set.
